Below are IC50 values for human DGAT1 (Homo sapiens, UniProt O75907) collected from several publications.
Lab note: class by IC50, see low end (below 10 nM), middle (10 nM to below 100 nM), high end (100 nM or more)

# count of solved cases: 4
O=C(Nc1ccc(C2CCN(C(=O)Nc3c(F)cc(F)cc3Br)CC2)cc1)c1ccccc1-c1ccc(C(F)(F)F)cc1
high end
O=C(O)C1(COC2CCN(c3ccc(-c4nc5ccc(C(F)(F)F)cc5[nH]4)cn3)CC2)CC1
low end
Cc1nc(C(=O)Nc2ccc(N3CCN(C(=O)Nc4c(Cl)cccc4Cl)CC3)cc2)c(-c2ccc(C(C)C)cc2)s1
high end
CCOC(=O)CCCC(=O)Nc1ccc(N2CCN(C(=O)Nc3c(Cl)cccc3Cl)CC2)cc1
middle

Shift focus to the following entry.
Exercise: Which bin, given its IC50, does "CC(C)c1ccc2c(/C=C/C(=O)N(NC(=O)c3cccc(F)c3)C(C)C)cn(C(=O)OC(C)(C)C)c2c1" occupy?
Solution: high end
